For each of the compounds below, state its TGI.
- Tested on: NCI-H460 lung
- protocol_details: NCI tumour cell line growth inhibition, 48 h

Notebook: O=C(CNC(=O)OCc1ccccc1)NCCCCC(NC(=O)OCc1ccccc1)C(=O)NC(CCCCNC(=O)CNC(=O)OCc1ccccc1)C(=O)OCc1ccccc1 (stereo not given) , TGI read as > 62.5 µM

Memo: c1ccc2c(c1)nc1n2C2CCC(C2)N1 (stereo not given) , reported TGI: > 10 µM

What the record says about CCOC(=O)c1nc(-c2ccccc2)oc1OCC : TGI is > 100 µM

TGI reading for CN(CCCN(C)CCc1ccc(Cl)c(Cl)c1)CCCN1CCCC1 : 5.98 µM

Query NC(=O)NC(=O)c1cccc(NC(=O)CF)c1 yields TGI of > 100 µM

Item: CCCCN(CCCC)c1ccc(C(=NC(C)CCCN(CC)CC)c2ccc(N(C)C)cc2)cc1 (stereo not given) | TGI: 1.64 µM

Lookup result for O=c1cc(N=Nc2ccc(O)cc2)[nH]c(=O)[nH]1 ; measured TGI: > 100 µM

The measured TGI associated with O=c1c2cn[nH]c2nc2scc(-c3ccc(Cl)cc3)n12 reads > 100 µM

For CCCc1cc(=O)n2c(C(=O)Nc3ccccc3OC)c(C(=O)Nc3ccc(F)cc3)sc2n1 the compound record lists TGI as > 160 µM

According to the records, this compound O=C(CN1CCN(c2ccccc2)CC1)N1CCN(c2nnc(-c3ccc(Cl)cc3)c(-c3ccc(Cl)cc3)n2)CC1 displays TGI of > 100 µM
